Here the recorded GI50 is given for each entry.
- Tested on: Malme-3M
- ASSAY_PROCEDURE: Cytotoxicity against human MALME-3M cells after 48 hrs by SRB assay
- Format: functional

| MOLECULE | UOM | GI50 |
| --- | --- | --- |
| CCCCOC(=O)[C@H]1O[C@@H](O[C@H]2CC[C@]3(C)[C@H]4CC=C5[C@@H]6CC(C)(C)CC[C@]6(C(=O)O)CC[C@@]5(C)[C@]4(C)CC[C@H]3C2(C)C)[C@H](O[C@@H]2O[C@H](CO)[C@@H](O)[C@H](O)[C@H]2O)[C@@H](O[C@@H]2O[C@H](CO)[C@H](O)[C@H](O)[C@H]2O)[C@@H]1O | µM | 17.8 |
| CC1(C)CC[C@]2(C(=O)O)CC[C@]3(C)C(=CC[C@@H]4[C@@]5(C)CC[C@H](O[C@@H]6O[C@H](C(=O)O)[C@@H](O)[C@H](O[C@@H]7O[C@H](CO)[C@H](O)[C@H](O)[C@H]7O)[C@H]6O[C@@H]6O[C@H](CO)[C@@H](O)[C@H](O)[C@H]6O)C(C)(C)[C@@H]5CC[C@]43C)[C@@H]2C1 [CALENDULAGYCOSIDE B] | µM | 79.9 |
| COC(=O)[C@H]1O[C@@H](O[C@H]2CC[C@]3(C)[C@H]4CC=C5[C@@H]6CC(C)(C)CC[C@]6(C(=O)O)CC[C@@]5(C)[C@]4(C)CC[C@H]3C2(C)C)[C@H](O)[C@@H](O[C@@H]2O[C@H](CO)[C@H](O)[C@H](O)[C@H]2O)[C@@H]1O | µM | 6.22 |

---

- ASSAY_PROCEDURE: Cytotoxicity against human Raji cells assessed as cell viability at 1000 molar ratio
- Assay type: cell-based
- RUN_CONDITIONS: read-out: Activity

| MOLECULE | viability at 1000 molar ratio |
| --- | --- |
| CC1(C)CC[C@]2(C(=O)O[C@@H]3O[C@H](CO)[C@@H](O)[C@H](O)[C@H]3O)CC[C@]3(C)C(=CC[C@@H]4[C@@]5(C)CC[C@H](O[C@@H]6O[C@H](C(=O)O)[C@@H](O)[C@H](O[C@@H]7O[C@H](CO)[C@H](O)[C@H](O)[C@H]7O)[C@H]6O)C(C)(C)[C@@H]5CC[C@]43C)[C@@H]2C1 [CALENDULAGYCOSIDE C] | 70% |
| COC(=O)[C@H]1O[C@@H](O[C@H]2CC[C@]3(C)[C@H]4CC=C5[C@@H]6CC(C)(C)CC[C@]6(C(=O)O[C@@H]6O[C@H](CO)[C@@H](O)[C@H](O)[C@H]6O)CC[C@@]5(C)[C@]4(C)CC[C@H]3C2(C)C)[C@H](O[C@@H]2O[C@H](CO)[C@@H](O)[C@H](O)[C@H]2O)[C@@H](O[C@@H]2O[C@H](CO)[C@H](O)[C@H](O)[C@H]2O)[C@@H]1O | 70% |
| COc1cc(-c2oc3cc(O)cc(O)c3c(=O)c2O[C@@H]2O[C@H](CO[C@@H]3O[C@@H](C)[C@H](O)[C@@H](O)[C@H]3O)[C@@H](O)[C@H](O)[C@H]2O)ccc1O [NARCISSIN] | 70% |

---

- System: SNB-19
- ASSAY_PROCEDURE: Cytotoxicity against human SNB-19 cells after 48 hrs by SRB assay
- Format: functional
- RUN_CONDITIONS: SNB-19, 48 h
MEASURED_PROPERTY: GI50 (µM)

| COMPOUND | TESTED_TARGET | MEASURED_PROPERTY | RELATION | REPORTED_RESULT |
| --- | --- | --- | --- | --- |
| COC(=O)[C@H]1O[C@@H](O[C@H]2CC[C@]3(C)[C@H]4CC=C5[C@@H]6CC(C)(C)CC[C@]6(C(=O)O)CC[C@@]5(C)[C@]4(C)CC[C@H]3C2(C)C)[C@H](O)[C@@H](O[C@@H]2O[C@H](CO)[C@H](O)[C@H](O)[C@H]2O)[C@@H]1O | SNB-19 | GI50 | = | 6.82 |
| CCCCOC(=O)[C@H]1O[C@@H](O[C@H]2CC[C@]3(C)[C@H]4CC=C5[C@@H]6CC(C)(C)CC[C@]6(C(=O)O)CC[C@@]5(C)[C@]4(C)CC[C@H]3C2(C)C)[C@H](O[C@@H]2O[C@H](CO)[C@@H](O)[C@H](O)[C@H]2O)[C@@H](O[C@@H]2O[C@H](CO)[C@H](O)[C@H](O)[C@H]2O)[C@@H]1O | SNB-19 | GI50 | = | 22.5 |
| CCCCOC(=O)[C@H]1O[C@@H](O[C@H]2CC[C@]3(C)[C@H]4CC=C5[C@@H]6CC(C)(C)CC[C@]6(C(=O)O[C@@H]6O[C@H](CO)[C@@H](O)[C@H](O)[C@H]6O)CC[C@@]5(C)[C@]4(C)CC[C@H]3C2(C)C)[C@H](O)[C@@H](O)[C@@H]1O | SNB-19 | GI50 | = | 1.44 |
| CC1(C)CC[C@]2(C(=O)O)CC[C@]3(C)C(=CC[C@@H]4[C@@]5(C)CC[C@H](O[C@@H]6O[C@H](C(=O)O)[C@@H](O)[C@H](O[C@@H]7O[C@H](CO)[C@H](O)[C@H](O)[C@H]7O)[C@H]6O[C@@H]6O[C@H](CO)[C@@H](O)[C@H](O)[C@H]6O)C(C)(C)[C@@H]5CC[C@]43C)[C@@H]2C1 [CALENDULAGYCOSIDE B] | SNB-19 | GI50 | > | 100 |

---

- System: HT-29
- ASSAY_PROCEDURE: Cytotoxicity against human HT-29 cells after 48 hrs by SRB assay
- Format: functional
- RUN_CONDITIONS: HT-29, 48 h

| COMPOUND | UOM | GI50 |
| --- | --- | --- |
| COC(=O)[C@H]1O[C@@H](O[C@H]2CC[C@]3(C)[C@H]4CC=C5[C@@H]6CC(C)(C)CC[C@]6(C(=O)O)CC[C@@]5(C)[C@]4(C)CC[C@H]3C2(C)C)[C@H](O)[C@@H](O[C@@H]2O[C@H](CO)[C@H](O)[C@H](O)[C@H]2O)[C@@H]1O | µM | 12.4 |
| CC1(C)CC[C@]2(C(=O)O)CC[C@]3(C)C(=CC[C@@H]4[C@@]5(C)CC[C@H](O[C@@H]6O[C@H](C(=O)O)[C@@H](O)[C@H](O[C@@H]7O[C@H](CO)[C@H](O)[C@H](O)[C@H]7O)[C@H]6O[C@@H]6O[C@H](CO)[C@@H](O)[C@H](O)[C@H]6O)C(C)(C)[C@@H]5CC[C@]43C)[C@@H]2C1 [CALENDULAGYCOSIDE B] | µM | 40.9 |
| CCCCOC(=O)[C@H]1O[C@@H](O[C@H]2CC[C@]3(C)[C@H]4CC=C5[C@@H]6CC(C)(C)CC[C@]6(C(=O)O)CC[C@@]5(C)[C@]4(C)CC[C@H]3C2(C)C)[C@H](O[C@@H]2O[C@H](CO)[C@@H](O)[C@H](O)[C@H]2O)[C@@H](O[C@@H]2O[C@H](CO)[C@H](O)[C@H](O)[C@H]2O)[C@@H]1O | µM | 34.2 |
| CCCCOC(=O)[C@H]1O[C@@H](O[C@H]2CC[C@]3(C)[C@H]4CC=C5[C@@H]6CC(C)(C)CC[C@]6(C(=O)O[C@@H]6O[C@H](CO)[C@@H](O)[C@H](O)[C@H]6O)CC[C@@]5(C)[C@]4(C)CC[C@H]3C2(C)C)[C@H](O)[C@@H](O)[C@@H]1O | µM | 2.07 |

---

Here the recorded GI50 is given for each entry.
- Tested on: RXF 393
- ASSAY_PROCEDURE: Cytotoxicity against human […] cells after 48 hrs by SRB assay
- Format: functional
- RUN_CONDITIONS: RXF 393, 48 h

| COMPOUND | GI50 |
| --- | --- |
| CCCCOC(=O)[C@H]1O[C@@H](O[C@H]2CC[C@]3(C)[C@H]4CC=C5[C@@H]6CC(C)(C)CC[C@]6(C(=O)O[C@@H]6O[C@H](CO)[C@@H](O)[C@H](O)[C@H]6O)CC[C@@]5(C)[C@]4(C)CC[C@H]3C2(C)C)[C@H](O)[C@@H](O)[C@@H]1O | 1.65 µM |
| CC1(C)CC[C@]2(C(=O)O)CC[C@]3(C)C(=CC[C@@H]4[C@@]5(C)CC[C@H](O[C@@H]6O[C@H](C(=O)O)[C@@H](O)[C@H](O[C@@H]7O[C@H](CO)[C@H](O)[C@H](O)[C@H]7O)[C@H]6O[C@@H]6O[C@H](CO)[C@@H](O)[C@H](O)[C@H]6O)C(C)(C)[C@@H]5CC[C@]43C)[C@@H]2C1 [CALENDULAGYCOSIDE B] | > 100 µM |
| CCCCOC(=O)[C@H]1O[C@@H](O[C@H]2CC[C@]3(C)[C@H]4CC=C5[C@@H]6CC(C)(C)CC[C@]6(C(=O)O)CC[C@@]5(C)[C@]4(C)CC[C@H]3C2(C)C)[C@H](O[C@@H]2O[C@H](CO)[C@@H](O)[C@H](O)[C@H]2O)[C@@H](O[C@@H]2O[C@H](CO)[C@H](O)[C@H](O)[C@H]2O)[C@@H]1O | 58.5 µM |
| COC(=O)[C@H]1O[C@@H](O[C@H]2CC[C@]3(C)[C@H]4CC=C5[C@@H]6CC(C)(C)CC[C@]6(C(=O)O)CC[C@@]5(C)[C@]4(C)CC[C@H]3C2(C)C)[C@H](O)[C@@H](O[C@@H]2O[C@H](CO)[C@H](O)[C@H](O)[C@H]2O)[C@@H]1O | 11.3 µM |
